- Test system: MDA-N
- Experiment Summary: NCI tumour cell line growth inhibition, 48 h
The source made the active and inactive calls. No stated cut-off is given here; in the data, active = GI50 up to about 1.1 µM and inactive = higher.
Classes used: 1 (active), 0 (inactive)

> print(dat)
                            molecule.smiles  assigned.class
1  C=CCn1c(=O)c(C)cn(/C(=C/C(=O)OCC)C(=O)OCC)c1=O               0
2           O=CN1CCN(C(=O)c2ccc(Cl)cc2)C1=S               0
3  CC(C)(C)OC(=O)NCC(c1c[nH]c2cc(Br)ccc12)c1c[nH]c2cc(Br)ccc12               0
4      COCCOC1=C(Cl)C(=O)c2c(O)ccc(O)c2C1=O               0
5  C[C@H]1CCC/C=C/[C@@H]2C[C@H](OC(=O)CN(C)C)C[C@H]2[C@H](O)/C=C/C(=O)O1               1
